Parameter AC50: see the listing below.
assay_system: Thromboxane A2 receptor (Homo sapiens, UniProt P21731)
Sequence (P21731 whole entry): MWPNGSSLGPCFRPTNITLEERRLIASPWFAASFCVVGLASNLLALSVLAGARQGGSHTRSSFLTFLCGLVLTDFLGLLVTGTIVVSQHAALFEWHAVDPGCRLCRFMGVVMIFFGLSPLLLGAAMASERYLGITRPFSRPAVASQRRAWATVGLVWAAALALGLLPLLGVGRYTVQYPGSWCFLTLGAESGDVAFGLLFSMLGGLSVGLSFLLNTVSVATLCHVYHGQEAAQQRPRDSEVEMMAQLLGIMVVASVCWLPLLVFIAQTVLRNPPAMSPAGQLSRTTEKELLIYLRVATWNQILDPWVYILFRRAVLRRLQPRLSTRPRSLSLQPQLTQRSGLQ
Assay type: functional, cell-based

Guide cases for AC50, answers given:
INSERT INTO assay_data (compound, recorded_value) VALUES
  ('CCNC(=O)/C=C(C)/C=C/C=C(C)/C=C/c1c(C)cc(OC)c(C)c1C [MOTRETINIDE]', '> 30 µM'),
  ('CC[C@H]1OC(=O)[C@H](C)[C@@H](O[C@H]2C[C@@](C)(OC)[C@@H](O)[C@H](C)O2)[C@H](C)[C@@H](O[C@@H]2O[C@H](C)C[C@H](N(C)C)[C@H]2O)[C@](C)(O)C[C@@H](C)[C@@H]2N[C@@H](COCCOC)O[C@H]([C@H]2C)[C@]1(C)O', '> 30 µM'),
  ('C[N+](C)(C)CCOC(=O)CCC(=O)OCC[N+](C)(C)C', '> 30 µM'),
  ('C[C@@H]1C[C@H]2[C@@H]3C[C@H](F)C4=CC(=O)C=C[C@]4(C)[C@H]3[C@@H](O)C[C@]2(C)[C@@]1(O)C(=O)CO', '> 30 µM'),
  ('Clc1ccc(C(Cn2ccnc2)OCc2csc3c(Cl)cccc23)c(Cl)c1 (configuration not stated)', '14.5 µM'),
  ('Cc1ccc(S(=O)(=O)NC(=O)NC2CCCCC2)cc1 [GLYCYCLAMIDE]', '> 30 µM');

Challenge: Requested read-out: AC50. Entry: "C[C@H](CCC(=O)O)[C@H]1CC[C@H]2[C@@H]3[C@H](O)C[C@@H]4C[C@H](O)CC[C@]4(C)[C@H]3C[C@H](O)[C@]12C"
Response given: > 30 µM

Challenge: For "NNCCc1ccccc1" then?
Response given: > 30 µM

---

AC50 values for the compounds below.
assay_system: Thromboxane A2 receptor (Homo sapiens)
Sequence (P21731 whole entry): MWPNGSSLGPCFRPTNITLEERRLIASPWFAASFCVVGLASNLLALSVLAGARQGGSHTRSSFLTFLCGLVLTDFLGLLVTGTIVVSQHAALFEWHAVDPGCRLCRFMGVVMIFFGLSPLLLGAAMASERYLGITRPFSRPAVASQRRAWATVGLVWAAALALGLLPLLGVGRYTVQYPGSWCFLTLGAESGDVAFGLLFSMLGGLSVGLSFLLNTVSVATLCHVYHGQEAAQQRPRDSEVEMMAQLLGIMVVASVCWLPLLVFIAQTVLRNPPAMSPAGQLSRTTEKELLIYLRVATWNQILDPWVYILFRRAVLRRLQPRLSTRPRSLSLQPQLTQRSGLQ

Some solved cases for reference:
INSERT INTO measurements (compound, recorded_value) VALUES
  ('COc1ccc(CN2CCN(C(c3ccc(F)cc3)c3ccc(F)cc3)CC2)c(OC)c1OC', '> 30 µM'),
  ('O=C(O)c1ccc(NC(=O)[C@H](Cc2ccc(O)cc2)NC(=O)c2ccccc2)cc1 [BENTIROMIDE]', '> 10 µM'),
  ('CC(=O)[C@H]1CC[C@H]2[C@@H]3C[C@H](C)C4=CC(=O)CC[C@]4(C)[C@H]3[C@@H](O)C[C@]12C', '> 10 µM');

Challenge: # AC50 lookup, item "COc1ccc(C2C(=O)c3ccccc3C2=O)cc1"
Response given: > 10 µM

Challenge: Check "CCCc1cc(=O)[nH]c(=S)[nH]1" too.
Response given: > 10 µM

Challenge: Note, next up: CC(=O)c1ccc(S(=O)(=O)NC(=O)NC2CCCCC2)cc1 [ACETOHEXAMIDE]
Response given: > 10 µM
